# Lookup of reported protein stability index keyed by entry
B1: FAM50A (parent)
chain: HIFPASRWEPYDPEKKWDKYTIR

- Variants of: B1
- Assay Text: protein stability index of a GFP-peptide fusion (GPS, HEK-293T) (PSI 1-6); higher = more stable;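 further: lentivirally expressed fusions sorted by FACS into six bins by GFP to DsRed ratio, PSI derived from sequencing read proportions per bin multiplied by bin number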
- Condition Label: c terminus: native
Lab note: jot the number down without any unit.

D18K = 3.01
D12I = 1.79
K19P = 2.3
D12R = 2.07
F3Y = 2.1
I2D = 2.28

Given the variant P13H , what is its reported protein stability index?
2.19

Record: T21W
2.86

// same read-out, input: F3H
1.96

P13M ?
2.53

Now this one: P13G
2.03
